# Stated conditions: 333.15 K; 3000 kPa; Liquid; Vibrating tube method
Numbers after ± are expanded uncertainties.
Answer each item with its documented mass density.
Write the numeric value and follow it with the unit.

| Compound | Readout | Measured value |
| --- | --- | --- |
| CCCCC(=O)OC [methyl pentanoate] | mass density | 851.71 ± 0.88 kg/m3 |

State recorded mass density for all listed compounds.
1. CCCCCC(=O)OC [methyl hexanoate]
2. CCCCCCCC(=O)OC [methyl octanoate]
3. CCCCCCCCC(=O)OC [methyl nonanoate]
4. CCCC(=O)OC [methyl butanoate]
5. CCCCCCC(=O)OC [methyl heptanoate]

1. 848.43 ± 0.88 kg/m3
2. 844.08 ± 0.88 kg/m3
3. 842.6 ± 0.87 kg/m3
4. 856.55 ± 0.89 kg/m3
5. 845.84 ± 0.88 kg/m3

====

# Stated conditions: 343.15 K; 10000 kPa; Liquid; Vibrating tube method
Readout: mass density (kg/m3)
Give bare numbers, in kg/m3.

Worked cases, answers included:
| Compound | Endpoint unit | mass density |
| --- | --- | --- |
| CCCCC(=O)OC [methyl pentanoate] | kg/m3 | 849.05 |
| CCCCCC(=O)OC [methyl hexanoate] | kg/m3 | 845.7 |
| CCCCCCCC(=O)OC [methyl octanoate] | kg/m3 | 841.71 |
| CCCC(=O)OC [methyl butanoate] | kg/m3 | 853.35 |

State recorded mass density for all listed compounds.
1. CCCCCCC(=O)OC [methyl heptanoate]
2. CCCCCCCCC(=O)OC [methyl nonanoate]

1: 843.47; 2: 840.27

====

Answer each item with its documented mass density.
# Stated conditions: 363.15 K; 5000 kPa; Liquid; Vibrating tube method
Give bare numbers, in kg/m3.

Worked cases, answers included:
| Compound | Measured value |
| --- | --- |
| CCCCC(=O)OC [methyl pentanoate] | 823.32 |
| CCCCCCCC(=O)OC [methyl octanoate] | 820.31 |
| CCCCCC(=O)OC [methyl hexanoate] | 821.87 |

State recorded mass density for all listed compounds.
1. CCCCCCCCC(=O)OC [methyl nonanoate]
2. CCCCCCC(=O)OC [methyl heptanoate]
3. CCCC(=O)OC [methyl butanoate]

1: 819.49; 2: 821; 3: 824.91

====

# Stated conditions: 293.15 K; 1000 kPa; Liquid; Vibrating tube method
Readout: mass density (kg/m3)
One number for each entry, in kg/m3.

Worked cases, answers included:
| Compound | mass density (kg/m3) |
| --- | --- |
| CCCCCCCCC(=O)OC [methyl nonanoate] | 874.57 |
| CCCCC(=O)OC [methyl pentanoate] | 890.39 |
| CCCCCCCC(=O)OC [methyl octanoate] | 877.02 |
| CCCCCCC(=O)OC [methyl heptanoate] | 880.29 |
| CCCC(=O)OC [methyl butanoate] | 898.68 |

Could you now consider this next compound?
Quick one: mass density for CCCCCC(=O)OC [methyl hexanoate] ?
884.65

====

Answer each item with its documented mass density.
# Stated conditions: 293.15 K; 100 kPa; Liquid; Vibrating tube method
Give bare numbers, in kg/m3.

| Compound | Endpoint unit | mass density |
| --- | --- | --- |
| CCCCCC(=O)OC [methyl hexanoate] | kg/m3 | 884.48 |
| CCCCCCCC(=O)OC [methyl octanoate] | kg/m3 | 876.9 |
| CCCCC(=O)OC [methyl pentanoate] | kg/m3 | 890.18 |
| CCCCCCC(=O)OC [methyl heptanoate] | kg/m3 | 880.16 |
| CCCCCCCCC(=O)OC [methyl nonanoate] | kg/m3 | 874.53 |

Could you now consider this next compound?
Quick one: mass density for CCCC(=O)OC [methyl butanoate] ?
898.42

====

# Stated conditions: 343.15 K; 35000 kPa; Liquid; Vibrating tube method
Answer each item with its documented mass density.
Answers are plain numbers, in kg/m3.

Worked cases, answers included:
| Compound | Endpoint unit | mass density |
| --- | --- | --- |
| CCCCCCCC(=O)OC [methyl octanoate] | kg/m3 | 861.81 |
| CCCCC(=O)OC [methyl pentanoate] | kg/m3 | 872.41 |

State recorded mass density for all listed compounds.
1. CCCC(=O)OC [methyl butanoate]
2. CCCCCCCCC(=O)OC [methyl nonanoate]
3. CCCCCCC(=O)OC [methyl heptanoate]
4. CCCCCC(=O)OC [methyl hexanoate]

1: 878.44; 2: 859.58; 3: 864.43; 4: 867.75

====

Answer each item with its documented mass density.
# Stated conditions: 323.15 K; 5000 kPa; Liquid; Vibrating tube method
Numbers after ± are expanded uncertainties.
Write the numeric value and follow it with the unit.

| Compound | mass density |
| --- | --- |
| CCCCCCCC(=O)OC [methyl octanoate] | 854.3 ± 0.89 kg/m3 |

State recorded mass density for all listed compounds.
1. CCCCCCC(=O)OC [methyl heptanoate]
2. CCCCCC(=O)OC [methyl hexanoate]

1: 856.64 ± 0.89 kg/m3; 2: 859.89 ± 0.89 kg/m3

State recorded mass density for all listed compounds.
1. CCCC(=O)OC [methyl butanoate]
2. CCCCCCCCC(=O)OC [methyl nonanoate]
3. CCCCC(=O)OC [methyl pentanoate]

1. 869.76 ± 0.9 kg/m3
2. 852.43 ± 0.89 kg/m3
3. 863.85 ± 0.9 kg/m3

====

# Stated conditions: 363.15 K; 50000 kPa; Liquid; Vibrating tube method
Answer each item with its documented mass density.
Numbers only, in kg/m3.

| Compound | Measured value |
| --- | --- |
| CCCCCCC(=O)OC [methyl heptanoate] | 860.82 |

State recorded mass density for all listed compounds.
1. CCCCCCCC(=O)OC [methyl octanoate]
2. CCCCCCCCC(=O)OC [methyl nonanoate]
3. CCCCC(=O)OC [methyl pentanoate]
4. CCCCCC(=O)OC [methyl hexanoate]

858.24
855.98
868.09
863.88

Quick one: mass density for CCCC(=O)OC [methyl butanoate] ?
873.56

====

# Stated conditions: 343.15 K; 40000 kPa; Liquid; Vibrating tube method
Readout: mass density (kg/m3)
Give bare numbers, in kg/m3.

| Compound | Endpoint unit | Measured value |
| --- | --- | --- |
| CCCCCCCC(=O)OC [methyl octanoate] | kg/m3 | 865.19 |
| CCCCC(=O)OC [methyl pentanoate] | kg/m3 | 876.28 |

State recorded mass density for all listed compounds.
1. CCCC(=O)OC [methyl butanoate]
2. CCCCCC(=O)OC [methyl hexanoate]

[882.65, 871.46]

State recorded mass density for all listed compounds.
1. CCCCCCC(=O)OC [methyl heptanoate]
2. CCCCCCCCC(=O)OC [methyl nonanoate]

867.96
862.91

====

Answer each item with its documented mass density.
# Stated conditions: 303.15 K; 5000 kPa; Liquid; Vibrating tube method
Give bare numbers, in kg/m3.

| Compound | Endpoint unit | mass density |
| --- | --- | --- |
| CCCCC(=O)OC [methyl pentanoate] | kg/m3 | 884.05 |
| CCCCCCC(=O)OC [methyl heptanoate] | kg/m3 | 874.66 |
| CCCCCCCC(=O)OC [methyl octanoate] | kg/m3 | 871.47 |
| CCCCCC(=O)OC [methyl hexanoate] | kg/m3 | 878.76 |
| CCCCCCCCC(=O)OC [methyl nonanoate] | kg/m3 | 869.35 |

Could you now consider this next compound?
Quick one: mass density for CCCC(=O)OC [methyl butanoate] ?
891.54

====

# Stated conditions: 313.15 K; 10000 kPa; Liquid; Vibrating tube method
Readout: mass density (kg/m3)
One number for each entry, in kg/m3.

Worked cases, answers included:
| Molecule | Endpoint unit | mass density |
| --- | --- | --- |
| CCCC(=O)OC [methyl butanoate] | kg/m3 | 885.34 |
| CCCCCCCC(=O)OC [methyl octanoate] | kg/m3 | 866.8 |
| CCCCC(=O)OC [methyl pentanoate] | kg/m3 | 878.33 |
| CCCCCCC(=O)OC [methyl heptanoate] | kg/m3 | 869.71 |

State recorded mass density for all listed molecules.
1. CCCCCCCCC(=O)OC [methyl nonanoate]
2. CCCCCC(=O)OC [methyl hexanoate]

[864.63, 873.55]

====

# Stated conditions: 363.15 K; 10000 kPa; Liquid; Vibrating tube method
Readout: mass density (kg/m3)
Numbers only, in kg/m3.

Worked cases, answers included:
| Compound | mass density (kg/m3) |
| --- | --- |
| CCCCCCCC(=O)OC [methyl octanoate] | 825.1 |
| CCCCCCC(=O)OC [methyl heptanoate] | 826.14 |
| CCCCCC(=O)OC [methyl hexanoate] | 827.32 |
| CCCCC(=O)OC [methyl pentanoate] | 829.23 |
| CCCCCCCCC(=O)OC [methyl nonanoate] | 824.1 |

Quick one: mass density for CCCC(=O)OC [methyl butanoate] ?
831.48
